- Assay: gradient 5% acetonitrile 3 min, to 50% in 2 min, to 85% in 15 min, held 3 min, 100 µL/min
- Test context: column: Zorbax Extend-C18 2.1 x 50 mm; eluents: water / acetonitrile, 0.1% formic acid
Everything with RP-LC retention time lower than 800 s is n; everything else, including exactly 800 s, is y.

{"Compound": "Cc1ccc(S(=O)(=O)N2CCc3nc[nH]c3C2)cc1Cl", "Classification": "n"}
{"Compound": "CN1CCN(C(=O)Cn2c(-c3cccs3)cc3ccccc32)CC1", "Classification": "n"}
{"Compound": "Cc1ccc(S(=O)(=O)N2C(=O)CCC2C(=O)NC2CCCCCCC2)cc1C (stereo not drawn)", "Classification": "y"}
{"Compound": "O=c1cc(N2CCOCC2)oc2c1ccc1ccccc12", "Classification": "y"}
{"Compound": "O=C(COc1ccccc1Cl)Nc1cncc(-c2nc3ccccc3o2)c1", "Classification": "y"}
{"Compound": "Cc1nc2cccnc2n1C1CCN(C(=O)Nc2ccccc2F)CC1", "Classification": "n"}
{"Compound": "CCCn1cc(C(=O)NCCN(C)C)c(S(=O)(=O)N2CCN(c3cccc(Cl)c3)CC2)n1", "Classification": "n"}
{"Compound": "COc1cccc(S(=O)(=O)NCc2cccnc2-c2ccc(C)cc2)c1", "Classification": "n"}
{"Compound": "Cn1ccc2cc(S(=O)(=O)N3CCC(C(=O)NCC4CCCO4)CC3)ccc21 (stereo not drawn)", "Classification": "n"}
{"Compound": "CCc1ccc(Oc2cc(N3CCC(C(=O)NCCC4=CCCCC4)CC3)ncn2)cc1", "Classification": "y"}
{"Compound": "Cc1ccc(S(=O)(=O)N2CCc3c(c(-c4nnc(-c5ccc(F)cc5)o4)nn3C)C2)cc1", "Classification": "y"}

====

- Assay: gradient 5% acetonitrile 3 min, to 50% in 2 min, to 85% in 15 min, held 3 min, 100 µL/min
- Test context: column: Zorbax Extend-C18 2.1 x 50 mm; eluents: water / acetonitrile, 0.1% formic acid
Recorded RP-LC retention time by entry
Quantity: RP-LC retention time (s)

{"Compound": "Cc1nc(Cn2cccc2C(=O)Nc2ccccc2)no1", "Quantity": "RP-LC retention time", "Units label": "s", "Recorded result": 820}
{"Compound": "CC(C)C(=O)Nc1ccc(-n2cnc(C(=O)NC(C)c3ccc(F)cc3)c2)nc1 (stereo not drawn)", "Quantity": "RP-LC retention time", "Units label": "s", "Recorded result": 777}
{"Compound": "O=C(Nc1nccs1)C1CCN(C(=O)C2COc3ccccc3O2)CC1 (stereo not drawn)", "Quantity": "RP-LC retention time", "Units label": "s", "Recorded result": 716}
{"Compound": "Cc1nc(-c2ccc(C(=O)NC(C)C)cc2)no1", "Quantity": "RP-LC retention time", "Units label": "s", "Recorded result": 693}
{"Compound": "O=C1NC2(CCN(C(=O)c3cccc(F)c3)CC2)N=C1c1cccc(F)c1", "Quantity": "RP-LC retention time", "Units label": "s", "Recorded result": 821}
{"Compound": "CCn1nc(C)c(CCNC(=O)CCCn2c3ccccc3c3cnn(C)c(=O)c32)c1C", "Quantity": "RP-LC retention time", "Units label": "s", "Recorded result": 698}
{"Compound": "Cc1nn(-c2ccccc2)c(C)c1/C=C1\\Oc2cc(O)ccc2C1=O", "Quantity": "RP-LC retention time", "Units label": "s", "Recorded result": 782}
{"Compound": "COC(=O)c1sccc1S(=O)(=O)N1CCN(S(=O)(=O)C2CC2)CC1", "Quantity": "RP-LC retention time", "Units label": "s", "Recorded result": 717}
{"Compound": "O=C(NCc1ccco1)c1ccc(-c2ccc(N3CCSCC3)nc2)cc1", "Quantity": "RP-LC retention time", "Units label": "s", "Recorded result": 708}
{"Compound": "CCn1cc(CC(=O)NCc2ccc(F)cc2)c2cccnc21", "Quantity": "RP-LC retention time", "Units label": "s", "Recorded result": 708}
{"Compound": "O=C(NCc1cccs1)c1ccc2c(c1)OCCCO2", "Quantity": "RP-LC retention time", "Units label": "s", "Recorded result": 791}
{"Compound": "O=C(c1ccc2c(c1)OCO2)N(c1ccc(Br)cc1)C1C=CS(=O)(=O)C1 (stereo not drawn)", "Quantity": "RP-LC retention time", "Units label": "s", "Recorded result": 779}
{"Compound": "COc1ccc(N2CCN(C(=O)C3CCN(S(=O)(=O)c4cn(C(C)C)cn4)CC3)CC2)cc1", "Quantity": "RP-LC retention time", "Units label": "s", "Recorded result": 706}
